Target: T1, mucin domain-deleted Sudan GP (GPdMuc) (Sudan virus (SUDV), UniProt Q7T9D9 33-632)
T1 construct: also called Sudan GPdMuc; GP(S)dMuc
Experiment: BLI competition on Sudan GPdMuc (lower table); competitor 16F6
Reported Property: % inhibition of binding
Could you write the number and then its unit?

[ask] Return reported % inhibition of binding; argument: antibody 102S (antibody, V domains shown) VH: EVQLVESGGGLVQPGGSLRLSCSASGFTFHSYDMNWARQAPGKGLEWVSEISSSGQSKNYADSVRGRFTISRDNAKNSLYLQINSLRSEDTAVYYCARVGFVAKFGSDFSITHGTYYLDYWGQGTLVTVSS VL: QLVLTQSPATLSLSPGERATLSCRASQSVSNYLAWYQQKPGQAPRLLIYDASNRAPGVPARFSGSGSGTDFSLTISSLEPEDFAVYYCLQRSNWPPWTFGQGTKVEIK
[reply] 19.4%
